# assay.comment: Displacement of [3H]-choline from choline transporter in human PC-3 cells preincubated with [3H]-choline for 15 mins followed by compound addition and measured after 60 mins
# Format: cell-based
For each record, check the reported IC50: if it is below 20 µM write 1 (yes), else write 0 (no).

Some solved entries appear below for comparison.
[
  {
    "compound": "OCC[N+]1(CCOc2ccccc2I)CCCC1",
    "group.label": "1 (yes)"
  },
  {
    "compound": "C[N+](C)(CCO)Cc1cccc(I)c1",
    "group.label": "0 (no)"
  },
  {
    "compound": "COc1ccc(CC[N+]23CCC(CC2)C(O)C3)cc1I (stereo not given)",
    "group.label": "0 (no)"
  },
  {
    "compound": "C[N+](C)(CCO)CCCCOc1ccc(-c2ccccc2)cc1I",
    "group.label": "1 (yes)"
  },
  {
    "compound": "OCC[N+]1(CCOc2cccc(I)c2)CCCC1",
    "group.label": "1 (yes)"
  },
  {
    "compound": "COc1ccc(CC[N+](C)(C)CCO)cc1I",
    "group.label": "0 (no)"
  }
]

[ask] Hello, is IC50 of the following compound strictly smaller than 20 µM? OC1C[N+]2(Cc3ccccc3I)CCC1CC2 (stereo not given)
[reply] 0 (no)

[ask] A record lists C[N+](C)(CCO)CCOc1ccc(I)cc1 . Is its IC50 below 20 µM?
[reply] 0 (no)

[ask] Say whether its IC50 is strictly beneath 20 µM. Entry: C[N+](C)(CCO)CCCCOc1ccccc1I
[reply] 1 (yes)

[ask] Item CCCCCCCCCCOc1ccc(CCC[N+](C)(C)CCO)cc1I : IC50 beneath 20 µM, strictly?
[reply] 1 (yes)

[ask] Field: below-cutoff. Rule: recorded IC50 strictly less than 20 µM. Subject: C[N+](C)(CCO)CCCCCCOc1ccc(I)c([N+](=O)[O-])c1
[reply] 1 (yes)

[ask] I wonder whether C[N+](C)(CCO)CCCCCCOc1cccc(I)c1 has IC50 below 20 µM. Can you tell?
[reply] 1 (yes)

[ask] Consider the compound OCC[N+]1(Cc2ccc(I)cc2)CCOCC1 . Is its IC50 strictly less than 20 µM?
[reply] 0 (no)

[ask] Please state whether IC50 is below 20 µM for C[N+](C)(CCO)CCOc1ccccc1I
[reply] 0 (no)

[ask] Determine if C[N+](C)(CCO)CCCC#CI shows IC50 strictly lower than 20 µM.
[reply] 1 (yes)

[ask] Say whether its IC50 is strictly beneath 20 µM. Entry: C[N+](C)(CCO)Cc1ccc(I)cc1
[reply] 0 (no)

[ask] Please state whether IC50 is below 20 µM for OCC[N+]1(CCCCOc2ccccc2I)CCCC1
[reply] 1 (yes)

[ask] I'd appreciate it if you could check whether OCC[N+]1(CCCCC#CI)CCCC1 has IC50 smaller than 20 µM.
[reply] 1 (yes)

[ask] hey, is IC50 for Cc1ccc(OCCCC[N+](C)(C)CCO)c(I)n1 lower than 20 µM or not?
[reply] 1 (yes)

[ask] Is the reported IC50 for OCC[N+]1(Cc2ccccc2I)CCCCC1 strictly below 20 µM?
[reply] 0 (no)

[ask] Hi there! Is IC50 for C[N+](C)(C)CCO [CHOLINE] below 20 µM, do you know?
[reply] 1 (yes)

[ask] # TODO verify IC50 < 20 µM strictly for this compound: OC1C[N+]2(CCc3ccc(I)cc3)CCC1CC2 (stereo not given)
[reply] 0 (no)

[ask] State whether 20 µM exceeds IC50 recorded for C[N+](C)(CCO)CCc1cccc(I)c1 .
[reply] 1 (yes)

[ask] Dear reviewer, please state whether OCC[N+]1(CCOc2ccc(I)cc2)CCCC1 has IC50 strictly beneath 20 µM.
[reply] 1 (yes)

[ask] Threshold test, IC50 < 20 µM: C[N+]1(C)CCOC(O)(c2ccc(-c3ccc(C4(O)C[N+](C)(C)CCO4)cc3)cc2)C1 (stereo not given)
[reply] 0 (no)

[ask] Item C[N+](C)(CCO)CCc1ccc(I)s1 : IC50 beneath 20 µM, strictly?
[reply] 1 (yes)

[ask] Does this compound meet the criterion IC50 < 20 µM? C[N+](C)(CCO)CCOc1cccc(I)c1
[reply] 0 (no)

[ask] Quick check: IC50 of COc1ccc(CCC[N+](C)(C)CCO)cc1I under 20 µM?
[reply] 0 (no)

[ask] Quick check: IC50 of C[N+]1(Cc2ccccc2I)CCCC(O)C1 (stereo not given) under 20 µM?
[reply] 0 (no)

###

# assay.comment: Cytotoxicity against human BJ cells
# Format: toxicity, cell-based
pIC50: −log10 of the molar value.
quantity.measured: pIC50

Entry under test: OCC[N+]1(CCOc2ccc(I)cc2)CCCC1 . Its pIC50 was < 4.30

Value of measured pIC50 for the entry C[N+]1(CCc2ccc(I)cc2)CCCC(O)C1 (stereo unspecified) : < 4.30

Measured pIC50, OCC[N+]1(Cc2ccc(I)cc2)CCCC1 : < 4.30

###

Measured log10 IC50 by item
# assay.comment: Displacement of [3H]-choline from choline transporter in human PC-3 cells preincubated with [3H]-choline for 15 mins followed by compound addition and measured after 60 mins
# Assay type: cell-based
Answers are given as log10 of IC50 in µM.

# annotated cases, reported log10 IC50 shown
[
  {
    "compound": "CC[N+](CC)(CCO)Cc1ccc(I)cc1",
    "log10 IC50": 1.89
  },
  {
    "compound": "OCC[N+]1(Cc2ccccc2I)CCOCC1",
    "log10 IC50": 1.63
  },
  {
    "compound": "C[N+](C)(CCO)CCCCC#CI",
    "log10 IC50": 1.56
  },
  {
    "compound": "C[N+](C)(CCO)CCc1ccc(I)cc1",
    "log10 IC50": 0.93
  },
  {
    "compound": "OCC[N+]1(CCCCCCOc2cccc(I)c2)CCCC1",
    "log10 IC50": -0.04
  },
  {
    "compound": "OCC[N+]1(CCc2ccc(I)cc2)CCCC1",
    "log10 IC50": 1.28
  },
  {
    "compound": "OCC[N+]1(Cc2cccc(I)c2)CCCC1",
    "log10 IC50": 1.45
  },
  {
    "compound": "C[N+](C)(CCCO)CCc1ccc(I)s1",
    "log10 IC50": 0.04
  },
  {
    "compound": "OCC[N+]1(CCc2ccc(I)s2)CCCC1",
    "log10 IC50": 1.00
  },
  {
    "compound": "C[N+](C)(CF)CCO",
    "log10 IC50": 1.30
  }
]

The compound identified as C[N+]1(CCc2ccc(I)cc2)CCCC(O)C1 (centres undefined) registered its log10 IC50 at 2.03

Reported log10 IC50 ( CC[N+](CC)(CCO)Cc1ccccc1I ) = 0.91

Sample CCCCCCOc1ccc(CCC[N+](C)(C)CCO)cc1I ; log10 IC50 observed: -0.39

response.value for C[N+](C)(CCO)Cc1ccccc1I (field: log10 IC50) = 2.33

###

# assay.comment: Stability in human liver microsomes assessed as parent compound remaining at 2 uM after 60 mins in presence of NADPH generating system by RF-MS analysis
# Format: ADME, Microsome
# run.parameters: read-out: Stability
Rule: remaining at 1 h, 2 µM below 90% gives TRUE. Equal to or above 90% gives FALSE.

Solved entries (count: 3):
[
  {
    "smiles.str": "C[N+](C)(CCO)CCc1cccc(I)c1",
    "group.label": "FALSE"
  },
  {
    "smiles.str": "C[N+](C)(CCO)CCc1ccc(I)s1",
    "group.label": "TRUE"
  },
  {
    "smiles.str": "OCC[N+]1(CCOc2ccccc2I)CCCC1",
    "group.label": "TRUE"
  }
]

[ask] Strictly below 90%: is that where remaining at 1 h, 2 µM of OCC[N+]1(CCc2ccc(I)cc2)CCCC1 sits?
[reply] FALSE

###

# assay.comment: Cytotoxicity against human BJ cells
# Format: toxicity, cell-based
pIC50: −log10 of the molar value.
quantity.measured: pIC50

[
  {
    "compound": "OCC[N+]1(Cc2ccccc2I)CCCCC1",
    "measured.result": "< 4.30"
  },
  {
    "compound": "OC1C[N+]2(CCc3ccc(I)cc3)CCC1CC2 (configuration not stated)",
    "measured.result": "< 4.30"
  },
  {
    "compound": "C[N+](C)(CCCCO)CCc1ccc(I)s1",
    "measured.result": "< 4.30"
  },
  {
    "compound": "C[N+]1(Cc2ccccc2I)CCCC(O)C1 (configuration not stated)",
    "measured.result": "< 4.30"
  },
  {
    "compound": "Cc1ccc(OCCCC[N+](C)(C)CCO)c(I)n1",
    "measured.result": "< 4.30"
  }
]

// pIC50 lookup, compound = COc1ccc(CCC[N+](C)(C)CCO)cc1I , result: < 4.30

// recorded pIC50 for C[N+](C)(CCCO)CCc1ccc(I)s1 : < 4.30
